folding stability dG unfold values by entry
- Experimental Details: folding stability dG unfold from chymotrypsin proteolysis; higher = more stable
Response body: numeric value in kcal/mol, unit text excluded.

Reference set, count: 3
SAGGSAGGSTIRIRVKTREEAERLAKLIPGARITYDEETKEFYLEIRLPPAPPPSLEELKAALSAGGSAGGS [r20_191_TrROS_Hall] = 1.96
SAGGSAGGSKVLIIEPEENKELAEKIAKELKEKGELGEVEIKTFSSPEEAKEYAKNYDIVITGSAGGSAGGS [r12_679_TrMRF] = 0.528
SAGGSAGGSAGMKLIEFPPGEEFEEFIKNLPGPIKSVERTKIEPEKVLAKIVLELPPSNLSAGGSAGGSAGG [r11_143_JUSTAS] = -0.545

Request: Form field: reported folding stability dG unfold of SAGGSAGGSYLVKIEWRHNGKPIEQTIPIDPGELPLEDIASNFPGYPWKIKVMDPNGEERPFTSAGGSAGGS [r12_540_TrROS]
Response: -0.0033

---

folding stability dG unfold values by entry
- Experimental Details: folding stability dG unfold (combined trypsin and chymotrypsin); higher = more stable
Response body: numeric value in kcal/mol, unit text excluded.

Reference set, count: 5
SAGGSAGGFKIPPGKTIMIQYPDGWMWRIKVKDGNTHMFKSPEEIEKLLNKPGFEIEIEWFPLDSAGGSAGG [r6_433_TrROS] = 1.67
SAGGSAGGSMKYTLLSTRKNPDGTELRLIEVSEDPEKAKEYLESQGAVEIEFKKNIMTVTFKSSAGGSAGGS [r20_222_JUSTAS] = -0.214
SAGGSAGGSTVEEIADFFKQQGFTDAEINVMPPPNGRRYVTVRFEMKEPNGNKHKMNFSIWIPSAGGSAGGS [r12_246_TrROS] = 2.31
SAGGMVITIPTTTSSIEEAIEAVKKKVEEEGYKVTEIKDIKVSTDPKTGKINVTATVIVEKLPKEEKSAGGS [r16_155_JUSTAS] = 2.55
SAGGSAGGSAMKEYVVASRGYDPATGLYSLTIESSEGKKVKNVTFDDPSNPEKAINEAIAKESAGGSAGGSA [r18_479_JUSTAS] = -0.829

Below: the item to evaluate.
Request: Form field: reported folding stability dG unfold of SAGGSAGGSARTVPPDLLVRVETPDEERIVPVSELDAFFARHPDVPWRDITVVDPATGAARSAGGSAGGSAG [r3_134_JUSTAS]
Response: -0.675

---

- Experimental Details: folding stability dG unfold from trypsin proteolysis; higher = more stable
Entry flag: 1.0 if folding stability dG unfold reaches 1 kcal/mol; 0.0 if it does not.

Completed entries (count: 6):
SAKKKVIEVELPPDAKVVTIKLEGKGVEITFVEVDGKLVITVRYKDDPSKTVTIVVKTKEEADALLKALSAG [r14_716_TrROS_Hall] = 1.0
GEVVERLKLPDLELVEVRTTTEGDTTFVYVKLKRPDSYYVVKLTVTPATGEVTVTEEKKVSPNETLEEVLAS [r1_383_JUSTAS] = 1.0
SAGGDEDDWRPIEIPLYIRNPENGHLFQITPMKIWVPDNLTIEMEMEMFDPDDGKVEKHKMTFTIPAKSAGG [r13_206_TrROS] = 1.0
SWWYIVTIKIWKPGNGEPKGPIMLFVRSPEEAEEIAEEPAPEHGYDVEVNVKRIPPDDMDDPEQMKEMMNSA [r9_864_TrROS] = 1.0
SAMIEIEAVFPPNVSLEEAVEAVKAEIESKGFEILEVKVEKLPNGEVLVRAVVKVKPEMPPEEIKKLAESAG [r14_110_TrMRF] = 1.0
SAGGSAGGSAGVIEVPIEELENLPDDVKVVPTENTAVIYNEKNPIVVPKNEPVLIAPSDKSAGGSAGGSAGG [r17_91_TrMRF] = 0.0

Request: Reported folding stability dG unfold at or above 1 kcal/mol? SMRLVPVPVRSADGRASVDEIRAAIREALPEGLRVDFGEEFIERALREAERRYGGRLRPDDFPILVPVLGSA [r9_197_TrMRF]
Response: 0.0

Request: Reported folding stability dG unfold at or above 1 kcal/mol? SAGGMTAEEIAEALRERLRELFPPGAEIEVDEIEVEEVEVEEEPVELSEEERERVEKMPEEERERLLSAGGS [r16_272_TrROS_Hall]
Response: 1.0

Request: Reported folding stability dG unfold at or above 1 kcal/mol? SAGGMLTLPATVEGDELTLTLPTGATKTVSPNTTVKLPDGTVVSLTPVSPSSVSATVTPLPADATRPSAGGS [r16_277_JUSTAS]
Response: 0.0

Request: Reported folding stability dG unfold at or above 1 kcal/mol? SAMKEGEEYEPVEKKKITIKNKKTNKTIEIEVVRNKKTNKYIVKITTKDGKKIEIVVSKEELEKLLKKLSAG [r14_240_TrROS_Hall]
Response: 1.0

Request: Reported folding stability dG unfold at or above 1 kcal/mol? SAGEWYRMSITFDLDPDNRDQLEKIAEKIREKDGFDKIEPVEHDPSNGRVTINVYMPPEAQDKIQEALRSAG [r5_193_TrROS]
Response: 0.0
